- procedure_text: Solubility in various solvents/solubilizing mixtures
- Format: physicochemical
- conditions: Capmul PG8, oil or lipid
- Text: The solubility of LSN 487355 in a variety of vehicles is illustrated in Table III.
readout_type: solubility

q: Recorded solubility for Cc1onc2c1c(=O)n([C@H]1CCC[C@@H](CNC(=O)c3ccc(F)nc3)C1)c1cccc(Cl)c21 , please?
a: 12 to 15 mg/mL

----------
- procedure_text: Solubility in various solvents/solubilizing mixtures
- Assay type: physicochemical
- conditions: 4% DMSO in deionized water, kinetic from dmso stock; 4% DMSO; compound dissolved in solvent first, then deionized water added
readout_type: solubility (µg/mL)
Express it in µg/mL; write the number only.

q: Looking for the measured solubility of Cc1onc2c1c(=O)n([C@H]1CCC[C@@H](CNC(=O)c3ccc(F)nc3)C1)c1cccc(Cl)c21 , can you help?
a: 2

----------
- procedure_text: Solubility in various solvents/solubilizing mixtures
- Type: physicochemical
- conditions: 10% N-methyl-2-pyrrolidone in deionized water, aqueous with cosolvent or surfactant or cyclodextrin, kinetic from dmso stock; 10% N-methyl-2-pyrrolidone; compound dissolved in solvent first, then deionized water added
readout_type: solubility
Could you give the number and then its unit, please?

q: Field request: solubility | item: Cc1onc2c1c(=O)n([C@H]1CCC[C@@H](CNC(=O)c3ccc(F)nc3)C1)c1cccc(Cl)c21
a: 30 µg/mL

----------
- procedure_text: pKa
- Type: physicochemical
- conditions: free base form
readout_type: pKa
Please state the value as a number alone, without comment.

q: So what's the measured pKa for this one? Cc1onc2c1c(=O)n([C@H]1CCC[C@@H](CNC(=O)c3ccc(F)nc3)C1)c1cccc(Cl)c21 [LSN 487355]
a: 3.77

----------
- procedure_text: Solubility in various solvents/solubilizing mixtures
- Format: physicochemical
- conditions: Labrafil M1944CS, oil or lipid
readout_type: solubility

q: Reported solubility, molecule Cc1onc2c1c(=O)n([C@H]1CCC[C@@H](CNC(=O)c3ccc(F)nc3)C1)c1cccc(Cl)c21 [LSN 487355] : ____
a: < 2000 µg/mL

----------
- procedure_text: Solubility in various solvents/solubilizing mixtures
- Assay type: physicochemical
- conditions: Soybean oil, oil or lipid
readout_type: solubility

q: Name the reported solubility value associated with the compound Cc1onc2c1c(=O)n([C@H]1CCC[C@@H](CNC(=O)c3ccc(F)nc3)C1)c1cccc(Cl)c21 [LSN 487355]
a: < 2000 µg/mL

----------
- procedure_text: Solubility in various solvents/solubilizing mixtures
- Format: physicochemical
- conditions: Phosphal 53 MCT, oil or lipid
readout_type: solubility

q: Sample Cc1onc2c1c(=O)n([C@H]1CCC[C@@H](CNC(=O)c3ccc(F)nc3)C1)c1cccc(Cl)c21 [LSN 487355] — what was its solubility?
a: > 2000 µg/mL

----------
- procedure_text: Solubility in various solvents/solubilizing mixtures
- Assay type: physicochemical
- conditions: NMP, organic solvent or mixture
readout_type: solubility

q: Given the entry Cc1onc2c1c(=O)n([C@H]1CCC[C@@H](CNC(=O)c3ccc(F)nc3)C1)c1cccc(Cl)c21 [LSN 487355] , report its measured solubility.
a: > 563 mg/mL

----------
- procedure_text: Solubility in various solvents/solubilizing mixtures
- Assay type: physicochemical
- conditions: organic solvent or mixture; DMSO; measured visually at about 50 mg/mL, all compound dissolved
readout_type: solubility

q: I am curious: what solubility value has been reported for Cc1onc2c1c(=O)n([C@H]1CCC[C@@H](CNC(=O)c3ccc(F)nc3)C1)c1cccc(Cl)c21 ?
a: ≥ 51 mg/mL

----------
- procedure_text: Caco-2 permeability
- Type: in vitro ADME
- conditions: human, Caco-2; free base form; read-out: B-A/A-B ratio
readout_type: efflux ratio

Cc1onc2c1c(=O)n([C@H]1CCC[C@@H](CNC(=O)c3ccc(F)nc3)C1)c1cccc(Cl)c21 [LSN 487355]: 2.3

q: Please look up its efflux ratio: Cc1onc2c1c(=O)n([C@H]1CCC[C@@H](NC(=O)[C@@H](O)c3ccc(F)nc3)C1)c1cccc(Cl)c21 [LSN 509207]
a: 2.7

----------
- procedure_text: Single excipient solubility screen
- Type: physicochemical
- conditions: oil or lipid; excipient labrasol (FIG. 13)
- Excerpt: A single excipient screen was completed in an attempt to find an appropriate excipient for a liquid formulation of LSN 487355. […]
Where a name gives a salt, the structure may show the parent alone.
readout_type: solubility

q: Item Cc1onc2c1c(=O)n([C@H]1CCC[C@@H](CNC(=O)c3ccc(F)nc3)C1)c1cccc(Cl)c21 [LSN 487355 phosphate salt] has what recorded solubility?
a: ≥ 20 mg/mL

----------
- procedure_text: Solubility in various solvents/solubilizing mixtures
- Type: physicochemical
- conditions: Phosphal 50 PG, oil or lipid
readout_type: solubility

q: Find the recorded solubility belonging to Cc1onc2c1c(=O)n([C@H]1CCC[C@@H](CNC(=O)c3ccc(F)nc3)C1)c1cccc(Cl)c21 and report it.
a: > 2000 µg/mL

FYI, the data here is from patent US20060004037A1.
